experimental.system: T1, CRBN, Q96SW2;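 further: pooled lentiviral library of zinc finger degron-EGFP fusions in mCherry-positive Jurkat cells, FACS-sorted after compound exposure, with degron abundance counted by next-generation sequencing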
T1 chain: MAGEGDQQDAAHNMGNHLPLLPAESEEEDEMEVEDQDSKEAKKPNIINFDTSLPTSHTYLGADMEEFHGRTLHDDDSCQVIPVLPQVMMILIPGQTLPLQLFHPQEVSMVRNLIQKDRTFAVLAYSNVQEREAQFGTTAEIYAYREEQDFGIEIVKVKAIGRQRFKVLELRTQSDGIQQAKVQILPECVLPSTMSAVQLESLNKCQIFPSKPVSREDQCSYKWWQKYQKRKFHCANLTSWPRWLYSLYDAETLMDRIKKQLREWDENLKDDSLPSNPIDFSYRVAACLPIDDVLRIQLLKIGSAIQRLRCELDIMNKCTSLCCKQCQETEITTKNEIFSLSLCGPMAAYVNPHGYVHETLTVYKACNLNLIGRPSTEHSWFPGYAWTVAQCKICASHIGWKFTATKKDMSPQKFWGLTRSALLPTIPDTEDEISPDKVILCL
test.protocol: log2 fold change of degron read counts, EGFP-low vs EGFP+ sorted cells (limma voom), compound-induced degradation; higher = more compound-induced degradation of the degron-EGFP fusion; degrons are variants of IKZF1/3 zinc finger 2; compound dose not given here
setup.conditions: Jurkat; 18 h; compound: compound 33 (diphenyl IMiD analogue)
Whole data set: some 8,300 sequences, median “log2 fold change of degron read counts, EGFP-low vs EGFP+ sorted cells (limma voom), compound-induced degradation” near -1.1, cut for the highest 2% near 3.2. What follows is part of a selection rich in the highest values, with near analogues and random picks from the rest.
Returns true (1) if the recorded log2 fold change of degron read counts is greater than or equal to -1, and false (0) otherwise.

1) FACDICGAPFTQKGNLLRHIKL [46F_47A_49D_50I_52G_53A_54P_55F_67L_, Q9UKT9]: true (1)
2) FDCDICGAPFTQKGNLLRHIKL [46F_47D_49D_50I_52G_53A_54P_55F_67L_, Q9UKT9]: false (0)
3) LCCNQCGFFCTQKGNLLRHIKL [46L_47C_49N_50Q_52G_53F_54F_55C_67L_, Q9UKT9]: false (0)
4) FWCNQCGAKFTQKGNLLRHIKL [46F_47W_49N_50Q_52G_53A_54K_55F_67L_, Q9UKT9]: false (0)
5) FGCEICGREFTQKGNLLRHIKL [46F_47G_49E_50I_52G_53R_54E_55F_67L_, Q9UKT9]: false (0)
